Target: Streptokinase A (Streptococcus pyogenes serotype M1, UniProt P10520)
Sequence (P10520 whole entry): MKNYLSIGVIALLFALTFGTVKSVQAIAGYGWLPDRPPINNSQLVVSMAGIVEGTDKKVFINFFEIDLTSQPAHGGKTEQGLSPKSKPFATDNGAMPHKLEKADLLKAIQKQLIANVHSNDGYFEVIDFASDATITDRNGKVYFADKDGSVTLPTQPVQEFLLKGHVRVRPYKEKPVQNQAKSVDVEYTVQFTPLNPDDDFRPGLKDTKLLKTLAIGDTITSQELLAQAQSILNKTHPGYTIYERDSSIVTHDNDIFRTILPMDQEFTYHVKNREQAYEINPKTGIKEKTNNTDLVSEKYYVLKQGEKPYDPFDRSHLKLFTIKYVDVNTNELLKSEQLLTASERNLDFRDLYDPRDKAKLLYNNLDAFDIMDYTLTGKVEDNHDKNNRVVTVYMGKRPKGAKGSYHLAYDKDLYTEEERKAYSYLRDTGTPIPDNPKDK
Test: viability-normalized secreted streptokinase activity reduction – plasminogen activation absorbance, OD405, dose response (AID 1914);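 further: secreted streptokinase activity via plasminogen activation per viability signal from cell pellet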
Assay type: functional, Streptococcus pyogenes M1 GAS
The source made the active and inactive calls.
Reported EC50 values are given for each entry in this list.

Take a look at these entries with their results.
COc1ccccc1-n1c(O)cc(=O)nc1SCC(=O)Nc1ccc(C)cc1	> 150 µM (not active)
COc1ccccc1CNC(=O)CSc1nc(=O)n(Cc2ccncc2)c2c1CCC2	> 150 µM (not active)
CC(=O)Nc1nnc(S(=O)(=O)N2CCN(c3ccc([N+](=O)[O-])cc3Cl)CC2)s1	> 150 µM (not active)
Nc1nonc1-n1nnc(C(=O)N/N=C/c2cc(Br)ccc2O)c1CNc1ccccc1	> 150 µM (not active)
CN1CCN(C2=Cc3cc(Cl)ccc3Sc3cc(F)ccc32)CC1	> 150 µM (not active)

State the recorded EC50 for this entry: CC1C(=O)C(C)C(c2cc(Cl)ccc2O)NC1c1cc(Cl)ccc1O (centres undefined)
> 150 µM (not active)

State the recorded EC50 for this entry: COc1ccc(-c2csc(Nc3ccc(S(=O)(=O)Nc4cc(C)on4)cc3)n2)cc1C
> 150 µM (not active)

State the recorded EC50 for this entry: O=S(=O)(Nc1cccc(-c2ccc(N3CCOCC3)nn2)c1)c1ccc(Cl)c(Cl)c1
23.5 µM (active)

State the recorded EC50 for this entry: O=[N+]([O-])c1cc(S(=O)(=O)Nc2cccc(Cl)c2)ccc1N=Nc1c(O)[nH]c2ccccc12
27.4 µM (active)

---

Target: Protein skinhead-1 (Caenorhabditis elegans)
Sequence (P34707 whole entry): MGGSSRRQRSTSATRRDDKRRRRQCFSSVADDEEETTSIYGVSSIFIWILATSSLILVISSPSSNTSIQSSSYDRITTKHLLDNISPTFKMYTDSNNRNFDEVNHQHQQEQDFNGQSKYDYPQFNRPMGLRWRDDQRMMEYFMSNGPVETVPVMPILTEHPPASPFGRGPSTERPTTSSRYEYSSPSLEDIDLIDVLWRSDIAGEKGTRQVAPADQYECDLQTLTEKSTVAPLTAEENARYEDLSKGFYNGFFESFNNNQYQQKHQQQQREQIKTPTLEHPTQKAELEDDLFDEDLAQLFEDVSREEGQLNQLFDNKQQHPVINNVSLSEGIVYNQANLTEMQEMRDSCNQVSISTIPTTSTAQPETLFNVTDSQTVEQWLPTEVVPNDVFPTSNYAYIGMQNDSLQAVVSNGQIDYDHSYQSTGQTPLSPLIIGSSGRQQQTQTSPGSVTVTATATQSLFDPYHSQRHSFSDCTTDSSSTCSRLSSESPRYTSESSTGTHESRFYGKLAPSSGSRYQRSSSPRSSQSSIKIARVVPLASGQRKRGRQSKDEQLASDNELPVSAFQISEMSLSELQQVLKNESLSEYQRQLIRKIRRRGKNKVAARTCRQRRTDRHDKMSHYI
Assay type: functional
The source made the active and inactive calls.
Give one outcome, nothing more. List: active, inactive

// below: answered compounds
O=C(COC(=O)CCC1CCCC1)Nc1ccc(Cl)cn1	inactive
COc1cc(NCCCCC(C)N)c2nccc(C)c2c1 (stereo not drawn)	inactive

Now look at this entry.
Hi, do you know how Brc1ccc(-c2cn3ccccc3n2)s1 came out in this test?
active

---

Reported EC50 values are given for each entry in this list.
Test: viability of HCT116 lacking mutant beta-catenin – cell-based, human colon tumor, dose response (AID 1045);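 further: HCT116 colon tumor cells with beta catenin knocked out; cells exposed to compound for 60 hours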
Format: functional
Activity calls are given as the source filed them.

C/N=C1\C(=O)c2ccccc2C(O)=C1N(C(C)=O)c1ccc(Br)cc1	0.594 µM (active)
CCc1cc(SC#N)cc(CC)c1NC(=O)CCl	8.43 µM (active)
CC1(C)Cc2c(C#N)c(N3CCN(C(=O)c4ccco4)CC3)nc(Cc3ccccc3)c2CO1	26 µM (active)

State the recorded EC50 for this entry: CCCNC(=O)c1c(NC(=O)C2COc3ccccc3O2)sc2c1CCCC2 (stereo not given)
9.98 µM (active)

State the recorded EC50 for this entry: C=C(C)CN1C(=O)C(O)(CC(=O)c2ccc3c(c2)OCCO3)c2ccccc21 (stereo not given)
22.7 µM (active)

---

Target: Corticotropin-releasing factor receptor 2/Corticotropin-releasing factor-binding protein (Homo sapiens, UniProt P24387+Q13324)
Sequence (Q13324 whole entry): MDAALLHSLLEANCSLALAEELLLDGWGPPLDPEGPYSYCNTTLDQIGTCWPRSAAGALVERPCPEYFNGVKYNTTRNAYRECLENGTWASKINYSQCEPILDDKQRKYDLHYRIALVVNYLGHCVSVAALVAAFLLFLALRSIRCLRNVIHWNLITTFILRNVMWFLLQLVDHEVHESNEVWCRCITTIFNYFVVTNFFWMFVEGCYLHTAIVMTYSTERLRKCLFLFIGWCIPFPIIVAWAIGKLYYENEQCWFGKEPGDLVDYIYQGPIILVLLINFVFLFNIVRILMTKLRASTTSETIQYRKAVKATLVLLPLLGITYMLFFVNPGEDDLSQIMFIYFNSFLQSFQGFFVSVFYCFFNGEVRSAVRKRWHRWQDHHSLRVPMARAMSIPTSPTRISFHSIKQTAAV
Sequence (P24387 whole entry): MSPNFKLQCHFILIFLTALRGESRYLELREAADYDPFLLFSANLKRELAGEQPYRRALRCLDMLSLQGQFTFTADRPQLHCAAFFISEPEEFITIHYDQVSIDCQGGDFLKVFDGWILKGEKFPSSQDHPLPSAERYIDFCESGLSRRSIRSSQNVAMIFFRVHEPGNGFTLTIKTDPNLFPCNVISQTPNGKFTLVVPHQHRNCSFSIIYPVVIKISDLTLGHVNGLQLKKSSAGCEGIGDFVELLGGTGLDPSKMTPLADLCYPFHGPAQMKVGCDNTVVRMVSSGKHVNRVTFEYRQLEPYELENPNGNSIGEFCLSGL
Experiment: activators of CRF receptor 2 with binding protein – uHTS hits, confirmation (AID 602473)
Format: functional
Conditions: read-out: EC50_Mean
Calls of active or inactive are those of the source.
Give one outcome, nothing more. List: active, inactive

NNC(=S)NC1CCS(=O)(=O)C1 (configuration not stated)	inactive
COc1ccc(CN2CCSCC2)cc1C	active
COc1ccc(C(=O)c2sc3nc(C)cc(-c4cccs4)c3c2N)cc1OC	active
CCc1nc2c(c(=O)c3ccccc3n2C)c(=O)n1C1CCCCCC1	active
Cc1ccc(CCNC(=O)C2CCC(=O)N2C2CCCC2)cc1 (configuration not stated)	inactive

Hi, do you know how CCCn1c(SCC(=O)N2CC(=O)Nc3ccccc32)nc2ccccc21 came out in this test?
inactive

Hi, do you know how COc1ccc(-c2nnc(Nc3ccc(S(=O)(=O)Nc4nccs4)cc3)c3ccccc23)cc1 came out in this test?
inactive

---

Experiment: non-specific 3'UTR reporter inhibition in Clone20-Shn3RL – cell-based, Renilla luciferase, cherry-picked, counter-screen for Shn3 inhibitor project, dose response (AID 624133)
Format: functional
Activity calls are given as the source filed them.
measured metric: AC50

Take a look at these entries with their results.
O=C(CSc1nc(-c2ccco2)cc(C(F)(F)F)n1)Nc1ccc(C(=O)N2CCCCC2)cc1	0.774 µM (active)
O=C(CSc1nnc(-c2cccnc2)s1)Nc1ccnc2ccccc12	2.34 µM (active)
C[C@H](O)C#Cc1ccc2c(c1)O[C@@H](CN(C)Cc1ccc(-c3ccccc3)cc1)[C@H](C)CN([C@@H](C)CO)S2(=O)=O	27.6 µM (active)

// below: AC50 requested for another molecule
State the recorded AC50 for this entry: O=C(Nc1cccc(F)c1)c1cc(S(=O)(=O)NCCC2=CCCCC2)ccc1F
13.9 µM (active)

---

Assay: Trypanosoma cruzi growth suppression in host cells – NIH3T3 host cells, beta-gal luminescence, confirmation (AID 2044);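 further: intracellular parasites grown in NIH/3T3 mouse fibroblasts as host cells; luminescent beta-galactosidase reporter signal from transgenic T. cruzi replicating inside host cells; inhibitors lower the luminescence signal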
Format: functional, cell-based
The source made the active and inactive calls.
measured metric: EC50

Take a look at these entries with their results.
CN1CCN(/N=C/c2ccc(-c3ccc([N+](=O)[O-])cc3)o2)CC1	1.11 µM (active)
O=C(Cn1cnc2cc([N+](=O)[O-])ccc2c1=O)Nc1ccccc1-c1ccccc1	0.629 µM (active)
Cc1ccc(Cn2c(=N)n(CC(O)COc3ccccc3)c3ccccc32)cc1 (stereo not drawn)	4.91 µM (active)
CCc1ccc(OCCNC(=O)c2ccccc2SCc2ccc(F)cc2)cc1	2.67 µM (active)
Cc1cc(C)c(OCC(=O)Nc2nc(-c3ccccn3)cs2)c(C)c1	2.47 µM (active)

State the recorded EC50 for this entry: O=[N+]([O-])c1cc(S(=O)(=O)Nc2cccc(Cl)c2)ccc1N=Nc1c(O)[nH]c2ccccc12
1.31 µM (active)

State the recorded EC50 for this entry: COc1ccccc1CN1CCCC(C(=O)c2ccccc2SC)C1 (stereo not drawn)
1.6 µM (active)

State the recorded EC50 for this entry: Cc1ccc(C)c(N2CCN(C(=O)c3ccc(Cn4c(=S)[nH]c5ccc(N6CCOCC6)cc5c4=O)cc3)CC2)c1
0.458 µM (active)

---

Biological target: Cytochrome P450 2C19 (Homo sapiens, UniProt P33261)
Sequence (P33261 whole entry): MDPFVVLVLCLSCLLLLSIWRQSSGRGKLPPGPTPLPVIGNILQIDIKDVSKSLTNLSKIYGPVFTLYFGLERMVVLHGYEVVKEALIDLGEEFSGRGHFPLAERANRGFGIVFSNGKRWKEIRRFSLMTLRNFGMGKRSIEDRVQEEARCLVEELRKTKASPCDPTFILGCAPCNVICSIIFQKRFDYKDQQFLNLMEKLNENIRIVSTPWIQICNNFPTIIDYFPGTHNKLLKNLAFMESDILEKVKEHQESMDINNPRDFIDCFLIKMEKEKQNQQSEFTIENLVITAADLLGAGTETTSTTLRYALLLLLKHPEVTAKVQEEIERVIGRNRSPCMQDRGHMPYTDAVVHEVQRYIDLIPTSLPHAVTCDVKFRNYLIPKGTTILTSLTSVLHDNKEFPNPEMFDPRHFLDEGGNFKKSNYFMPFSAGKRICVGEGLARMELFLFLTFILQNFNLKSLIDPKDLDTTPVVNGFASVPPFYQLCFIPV
Experiment: Cytochrome panel assay with activity outcomes. Panel member name: p450-cyp2c19 Compounds with AC50 equal or less than 10 uM are considered active
Assay type: functional
Settings: read-out: AC50
Reported AC50 values are given for each entry in this list.

Take a look at these entries with their results.
O=C1NC(=O)N(CCC2=CCCCC2)C(=O)/C1=C\Nc1cccc(F)c1	10 µM (inconclusive)
COc1ccc(NC(=O)CC#N)cc1OC	0.00501 µM (inconclusive)
CC1(C)Cc2ccccc2C(NNC(=O)c2ccncc2)=N1	31.6 µM (inconclusive)

Form field: AC50 recorded for Cc1ccc2nc(CC(=O)c3ccc4ccccc4c3)c(O)nc2c1 with Cytochrome P450 2C19 (Homo sapiens, UniProt P33261) (enter value)
0.794 µM (inconclusive)

Form field: AC50 recorded for CS(=O)(=O)N1CCC2(CC1)CN(c1ccncc1)C2 with Cytochrome P450 2C19 (Homo sapiens, UniProt P33261) (enter value)
20 µM (inconclusive)

Form field: AC50 recorded for COc1ccc(CC(=N)NOC(=O)Cc2ccccc2)cc1OC with Cytochrome P450 2C19 (Homo sapiens, UniProt P33261) (enter value)
15.8 µM (inconclusive)
